system: AS120; experiment: qHTS profiling for inhibitors of Plasmodium falciparum proliferation (AID 504749); also: nearly all actives have a fitted effect of over 60% in size; settings: P. falciparum in erythrocytes, SYBR Green DNA, 72 h; series mostly up to 28.7 µM
Records with an inconclusive call do not appear. Activity calls are given as the source filed them. Calls follow the shape of the dose curve; as a rule, active = well fitted inhibition curve with a large enough effect; inconclusive = small, poorly fitted or top-dose-only effect; inactive = flat fitted curve, though single readings scatter.
In this exercise, the only acceptable responses are active, inactive

| compound | assigned.label |
| --- | --- |
| O=C1CN=C(c2ccccc2)c2cc([N+](=O)[O-])ccc2N1 | inactive |
| CC(C)NC(C)C | inactive |

Would you mind telling me which call this test gave C[C@]12CC[C@@H]3c4ccc(OC(=O)N(CCCl)CCCl)cc4CC[C@H]3[C@@H]1CC[C@@H]2O ?
inactive

Would you mind telling me which call this test gave O=C(Nc1ccc(Br)cc1)c1cc(Br)cc(Br)c1O ?
inactive

Measured values drawn from PubChem BioAssay (NCATS) for this set.
